# target: Endoplasmic reticulum aminopeptidase 1 (Homo sapiens) (UniProt Q9NZ08)
# Sequence (Q9NZ08 whole entry, looked up): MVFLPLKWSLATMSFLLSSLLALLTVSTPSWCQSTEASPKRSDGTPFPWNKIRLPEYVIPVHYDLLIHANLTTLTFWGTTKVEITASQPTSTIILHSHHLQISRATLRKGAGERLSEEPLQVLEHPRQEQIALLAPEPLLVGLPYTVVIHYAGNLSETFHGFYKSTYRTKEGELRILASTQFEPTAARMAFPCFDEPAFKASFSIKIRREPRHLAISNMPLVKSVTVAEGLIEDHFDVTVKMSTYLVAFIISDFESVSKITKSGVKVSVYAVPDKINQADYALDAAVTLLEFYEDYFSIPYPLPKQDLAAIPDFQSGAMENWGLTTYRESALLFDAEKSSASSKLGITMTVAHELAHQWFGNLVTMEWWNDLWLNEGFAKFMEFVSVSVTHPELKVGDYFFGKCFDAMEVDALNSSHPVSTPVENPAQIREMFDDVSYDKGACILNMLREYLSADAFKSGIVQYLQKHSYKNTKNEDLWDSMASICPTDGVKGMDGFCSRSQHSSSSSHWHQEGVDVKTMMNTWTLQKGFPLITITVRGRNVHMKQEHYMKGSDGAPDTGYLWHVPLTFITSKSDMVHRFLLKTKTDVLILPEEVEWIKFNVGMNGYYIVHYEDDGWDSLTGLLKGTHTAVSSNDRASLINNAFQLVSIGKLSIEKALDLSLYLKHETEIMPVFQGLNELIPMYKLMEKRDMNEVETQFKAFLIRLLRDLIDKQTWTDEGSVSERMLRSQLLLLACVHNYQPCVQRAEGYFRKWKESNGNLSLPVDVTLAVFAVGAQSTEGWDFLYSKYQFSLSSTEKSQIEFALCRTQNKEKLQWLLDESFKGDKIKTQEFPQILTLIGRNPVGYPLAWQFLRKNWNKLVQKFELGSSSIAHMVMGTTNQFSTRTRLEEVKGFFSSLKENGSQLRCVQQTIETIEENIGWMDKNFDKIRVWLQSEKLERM
# assay.details: ERAP1 aminopeptidase activity change, dose response, biochemical, fluorescence, cherry-pick (AID 743317)
# condition.label: ERAP1 enzyme, Leu-AMC fluorescence, 60 min; at 11 µM (top of the series)
Results filed as inconclusive are left out. Active and inactive are the calls of the source.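 The calls were made as follows: active = fitted curve reaches 40% activation at or below the top valid dose, and every replicate test is called active; inconclusive = replicate tests disagree, some active and some inactive; inactive = all replicate tests inactive, including activity in the wrong direction.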
List of activity increase (activation) values.
observed.property: activity increase (activation)

molecule: COc1ccc(-c2cc3ccc(O)cc3oc2=O)cc1
target: Endoplasmic reticulum aminopeptidase 1 (Homo sapiens) (UniProt Q9NZ08)
observed.property: activity increase (activation)
observed.value: -75.7% (inactive)
--
molecule: O=C(O)c1ccccc1NS(=O)(=O)c1cccc(-n2sc3ccccc3c2=O)c1
target: Endoplasmic reticulum aminopeptidase 1 (Homo sapiens) (UniProt Q9NZ08)
observed.property: activity increase (activation)
observed.value: -98.6% (inactive)
--
molecule: O=S(=O)(c1ccc(N2CCC(c3ccc(Cl)cc3)=N2)cc1)N(CCO)CCO
target: Endoplasmic reticulum aminopeptidase 1 (Homo sapiens) (UniProt Q9NZ08)
observed.property: activity increase (activation)
observed.value: -40.9% (inactive)
--
molecule: CSC1=NS(=O)(=O)c2c(C)nn(C)c2S1
target: Endoplasmic reticulum aminopeptidase 1 (Homo sapiens) (UniProt Q9NZ08)
observed.property: activity increase (activation)
observed.value: -42.5% (inactive)
--
molecule: Cc1c(CC(=O)N2CCN(C(=O)C3COc4ccccc4O3)CC2)c(=O)oc2cc(O)c(Cl)cc12 (stereo not drawn)
target: Endoplasmic reticulum aminopeptidase 1 (Homo sapiens) (UniProt Q9NZ08)
observed.property: activity increase (activation)
observed.value: -33.4% (inactive)
--
molecule: COCCCn1c(C(=O)N2CCOCC2)cc2c(=O)n3ccccc3nc21
target: Endoplasmic reticulum aminopeptidase 1 (Homo sapiens) (UniProt Q9NZ08)
observed.property: activity increase (activation)
observed.value: -46.9% (inactive)
--
molecule: CCc1cc(=O)oc2c(CNCc3c(F)cccc3Cl)c(O)ccc12
target: Endoplasmic reticulum aminopeptidase 1 (Homo sapiens) (UniProt Q9NZ08)
observed.property: activity increase (activation)
observed.value: -60.7% (inactive)
--
molecule: O=c1ccc2cc(O[C@@H]3O[C@H](CO)[C@@H](O)[C@H](O)[C@H]3O)c(O)cc2o1
target: Endoplasmic reticulum aminopeptidase 1 (Homo sapiens) (UniProt Q9NZ08)
observed.property: activity increase (activation)
observed.value: -98.9% (inactive)
--
molecule: CCCNC(=O)N(C)C[C@@H]1Oc2ncc(-c3ccncc3)cc2C(=O)N([C@H](C)CO)C[C@@H]1C
target: Endoplasmic reticulum aminopeptidase 1 (Homo sapiens) (UniProt Q9NZ08)
observed.property: activity increase (activation)
observed.value: -31.8% (inactive)
--
molecule: O=c1oc2cc(O)ccc2cc1S(=O)(=O)c1ccccc1
target: Endoplasmic reticulum aminopeptidase 1 (Homo sapiens) (UniProt Q9NZ08)
observed.property: activity increase (activation)
observed.value: 349% (inactive)
--
molecule: NC(=NCCc1c[nH]c2ccccc12)NS(=O)(=O)c1cc(F)ccc1F
target: Endoplasmic reticulum aminopeptidase 1 (Homo sapiens) (UniProt Q9NZ08)
observed.property: activity increase (activation)
observed.value: -59.5% (inactive)
--
molecule: COc1ccc(-c2cc3ccc(O)cc3oc2=O)cc1OC
target: Endoplasmic reticulum aminopeptidase 1 (Homo sapiens) (UniProt Q9NZ08)
observed.property: activity increase (activation)
observed.value: -92.7% (inactive)
--
molecule: Cc1cc(=O)oc2c(CN3CCCC3)c(O)ccc12
target: Endoplasmic reticulum aminopeptidase 1 (Homo sapiens) (UniProt Q9NZ08)
observed.property: activity increase (activation)
observed.value: -44% (inactive)

meta.source: PubChem BioAssay AID743317
